System: Proteus mirabilis
Assay: Antibacterial activity against Proteus mirabilis obtained from complicated skin and skin structure infections by agar dilution method
Type: functional
// returns not fulfilled unless MIC90 is strictly below 1 µg/mL, in which case fulfilled

Here's what some known entries look like.
C[C@@H](O)[C@H]1C(=O)N2C(C(=O)O)=C(S[C@@H]3CN[C@H](C(=O)N(C)C)C3)[C@H](C)[C@H]12    fulfilled
C[C@H]1COc2c(N3CCN(C)CC3)c(F)cc3c(=O)c(C(=O)O)cn1c23.C[C@H]1COc2c(N3CCN(C)CC3)c(F)cc3c(=O)c(C(=O)O)cn1c23.O    not fulfilled
CC(C)(O/N=C(\C(=O)N[C@@H]1C(=O)N2C(C(=O)[O-])=C(C[n+]3ccccc3)CS[C@H]12)c1csc(N)n1)C(=O)O    not fulfilled
Nc1nc(/C(=N/O)C(=O)N[C@@H]2C(=O)N3C(C(=O)O)=C(/C=C4\CCN([C@@H]5CCNC5)C4=O)CS[C@H]23)ns1    fulfilled
CO/N=C(\C(=O)N[C@@H]1C(=O)N2C(C(=O)O)=C(CSc3nc(=O)c(O)nn3C)CS[C@H]12)c1csc(N)n1    not fulfilled

Lab note: MIC90 threshold 1 µg/mL. Does this molecule come in strictly under it? O=C(O)c1cn(C2CC2)c2cc(N3CCNCC3)c(F)cc2c1=O
not fulfilled

Lab note: MIC90 threshold 1 µg/mL. Does this molecule come in strictly under it? NCC[C@H](O)C(=O)N[C@@H]1C[C@H](N)[C@@H](O[C@H]2O[C@H](CN)[C@@H](O)[C@H](O)[C@H]2O)[C@H](O)[C@H]1O[C@H]1O[C@H](CO)[C@@H](O)[C@H](N)[C@H]1O
not fulfilled

* * *

System: Streptococcus agalactiae
Experiment: Antibacterial activity against Streptococcus agalactiae obtained from complicated skin and skin structure infections by agar dilution method
Format: functional
// reported MIC50 for each item listed
Express the result in µg/mL but write the number alone.

In the examples that follow, each entry is paired with its recorded MIC50.
C[C@H]1COc2c(N3CCN(C)CC3)c(F)cc3c(=O)c(C(=O)O)cn1c23.C[C@H]1COc2c(N3CCN(C)CC3)c(F)cc3c(=O)c(C(=O)O)cn1c23.O    0.5
CC[C@H]1OC(=O)[C@H](C)[C@@H](O[C@H]2C[C@@](C)(OC)[C@@H](O)[C@H](C)O2)[C@H](C)[C@@H](O[C@@H]2O[C@H](C)C[C@H](N(C)C)[C@H]2O)[C@](C)(O)C[C@@H](C)C(=O)[C@H](C)[C@@H](O)[C@]1(C)O    0.06
CCC[C@@H]1C[C@@H](C(=O)N[C@@H]([C@H]2O[C@H](SC)[C@H](O)[C@@H](O)[C@H]2O)[C@H](C)Cl)N(C)C1    0.06
CC1(C)S[C@@H]2[C@H](NC(=O)Cc3ccccc3)C(=O)N2[C@H]1C(=O)O    0.06

Fill in the blank: the reported MIC50 of Nc1nc(/C(=N/O)C(=O)N[C@@H]2C(=O)N3C(C(=O)O)=C(/C=C4\CCN([C@@H]5CCNC5)C4=O)CS[C@H]23)ns1 is ____.
0.06

Fill in the blank: the reported MIC50 of CN[C@H](CC(C)C)C(=O)N[C@H]1C(=O)N[C@@H](CC(N)=O)C(=O)N[C@H]2C(=O)N[C@H]3C(=O)N[C@H](C(=O)N[C@H](C(=O)O)c4cc(O)cc(O)c4-c4cc3ccc4O)[C@H](O)c3ccc(c(Cl)c3)Oc3cc2cc(c3O[C@@H]2O[C@H](CO)[C@@H](O)[C@H](O)[C@H]2O[C@H]2C[C@](C)(N)[C@H](O)[C@H](C)O2)Oc2ccc(cc2Cl)[C@H]1O is ____.
0.5

Fill in the blank: the reported MIC50 of CC(=O)NC[C@H]1CN(c2ccc(N3CCOCC3)c(F)c2)C(=O)O1 is ____.
1

Fill in the blank: the reported MIC50 of CC(C)(O/N=C(\C(=O)N[C@@H]1C(=O)N2C(C(=O)[O-])=C(C[n+]3ccccc3)CS[C@H]12)c1csc(N)n1)C(=O)O is ____.
0.5

* * *

System: Micrococcus
Assay: Antibacterial activity against Micrococcus spp. obtained from complicated skin and skin structure infections by agar dilution method
Type: functional
// reported MIC50 for each item listed
Express the result in µg/mL but write the number alone.

In the examples that follow, each entry is paired with its recorded MIC50.
Cc1onc(-c2ccccc2)c1C(=O)N[C@@H]1C(=O)N2[C@@H]1SC(C)(C)[C@@H]2C(=O)O    0.25
Nc1nc(/C(=N/O)C(=O)N[C@@H]2C(=O)N3C(C(=O)O)=C(/C=C4\CCN([C@@H]5CCNC5)C4=O)CS[C@H]23)ns1    0.12
CN[C@H](CC(C)C)C(=O)N[C@H]1C(=O)N[C@@H](CC(N)=O)C(=O)N[C@H]2C(=O)N[C@H]3C(=O)N[C@H](C(=O)N[C@H](C(=O)O)c4cc(O)cc(O)c4-c4cc3ccc4O)[C@H](O)c3ccc(c(Cl)c3)Oc3cc2cc(c3O[C@@H]2O[C@H](CO)[C@@H](O)[C@H](O)[C@H]2O[C@H]2C[C@](C)(N)[C@H](O)[C@H](C)O2)Oc2ccc(cc2Cl)[C@H]1O    1
CCC[C@@H]1C[C@@H](C(=O)N[C@@H]([C@H]2O[C@H](SC)[C@H](O)[C@@H](O)[C@H]2O)[C@H](C)Cl)N(C)C1    1

Field: next compound
Fill in the blank: the reported MIC50 of CC(C)(O/N=C(\C(=O)N[C@@H]1C(=O)N2C(C(=O)[O-])=C(C[n+]3ccccc3)CS[C@H]12)c1csc(N)n1)C(=O)O is ____.
1

* * *

// reported MIC50 for each item listed
System: Klebsiella pneumoniae
Assay: Antibacterial activity against Klebsiella pneumoniae obtained from complicated skin and skin structure infections by agar dilution method
Assay type: functional

In the examples that follow, each entry is paired with its recorded MIC50.
CC(C)(O/N=C(\C(=O)N[C@@H]1C(=O)N2C(C(=O)[O-])=C(C[n+]3ccccc3)CS[C@H]12)c1csc(N)n1)C(=O)O [CEFTAZIDIME]    0.12 µg/mL
CO/N=C(\C(=O)N[C@@H]1C(=O)N2C(C(=O)O)=C(CSc3nc(=O)c(O)nn3C)CS[C@H]12)c1csc(N)n1 [CEFTRIAXONE]    0.12 µg/mL
NCC[C@H](O)C(=O)N[C@@H]1C[C@H](N)[C@@H](O[C@H]2O[C@H](CN)[C@@H](O)[C@H](O)[C@H]2O)[C@H](O)[C@H]1O[C@H]1O[C@H](CO)[C@@H](O)[C@H](N)[C@H]1O [AMIKACIN]    1 µg/mL

Fill in the blank: the reported MIC50 of Nc1nc(/C(=N/O)C(=O)N[C@@H]2C(=O)N3C(C(=O)O)=C(/C=C4\CCN([C@@H]5CCNC5)C4=O)CS[C@H]23)ns1 [CEFTOBIPROLE] is ____.
0.06 µg/mL

Fill in the blank: the reported MIC50 of C[C@@H](O)[C@H]1C(=O)N2C(C(=O)O)=C(S[C@@H]3CN[C@H](C(=O)N(C)C)C3)[C@H](C)[C@H]12 [MEROPENEM] is ____.
0.03 µg/mL

Fill in the blank: the reported MIC50 of C[C@H]1COc2c(N3CCN(C)CC3)c(F)cc3c(=O)c(C(=O)O)cn1c23.C[C@H]1COc2c(N3CCN(C)CC3)c(F)cc3c(=O)c(C(=O)O)cn1c23.O [LEVOFLOXACIN] is ____.
0.06 µg/mL

Fill in the blank: the reported MIC50 of CO/N=C(\C(=O)N[C@@H]1C(=O)N2C(C(=O)[O-])=C(C[N+]3(C)CCCC3)CS[C@H]12)c1csc(N)n1 is ____.
≤ 0.12 µg/mL

* * *

// reported MIC50 for each item listed
Test system: Aerococcus viridans
Assay: Antibacterial activity against Aerococcus viridans obtained from complicated skin and skin structure infections by agar dilution method
Assay type: functional

In the examples that follow, each entry is paired with its recorded MIC50.
Nc1nc(/C(=N/O)C(=O)N[C@@H]2C(=O)N3C(C(=O)O)=C(/C=C4\CCN([C@@H]5CCNC5)C4=O)CS[C@H]23)ns1    0.12 µg/mL
C[C@H]1COc2c(N3CCN(C)CC3)c(F)cc3c(=O)c(C(=O)O)cn1c23.C[C@H]1COc2c(N3CCN(C)CC3)c(F)cc3c(=O)c(C(=O)O)cn1c23.O    0.5 µg/mL
CC[C@H]1OC(=O)[C@H](C)[C@@H](O[C@H]2C[C@@](C)(OC)[C@@H](O)[C@H](C)O2)[C@H](C)[C@@H](O[C@@H]2O[C@H](C)C[C@H](N(C)C)[C@H]2O)[C@](C)(O)C[C@@H](C)C(=O)[C@H](C)[C@@H](O)[C@]1(C)O    0.03 µg/mL

Field: next molecule
Fill in the blank: the reported MIC50 of CC1(C)S[C@@H]2[C@H](NC(=O)Cc3ccccc3)C(=O)N2[C@H]1C(=O)O is ____.
≤ 0.03 µg/mL
